pKi overview
# TGT: UniProt P31652
# Sequence (P31652 whole entry): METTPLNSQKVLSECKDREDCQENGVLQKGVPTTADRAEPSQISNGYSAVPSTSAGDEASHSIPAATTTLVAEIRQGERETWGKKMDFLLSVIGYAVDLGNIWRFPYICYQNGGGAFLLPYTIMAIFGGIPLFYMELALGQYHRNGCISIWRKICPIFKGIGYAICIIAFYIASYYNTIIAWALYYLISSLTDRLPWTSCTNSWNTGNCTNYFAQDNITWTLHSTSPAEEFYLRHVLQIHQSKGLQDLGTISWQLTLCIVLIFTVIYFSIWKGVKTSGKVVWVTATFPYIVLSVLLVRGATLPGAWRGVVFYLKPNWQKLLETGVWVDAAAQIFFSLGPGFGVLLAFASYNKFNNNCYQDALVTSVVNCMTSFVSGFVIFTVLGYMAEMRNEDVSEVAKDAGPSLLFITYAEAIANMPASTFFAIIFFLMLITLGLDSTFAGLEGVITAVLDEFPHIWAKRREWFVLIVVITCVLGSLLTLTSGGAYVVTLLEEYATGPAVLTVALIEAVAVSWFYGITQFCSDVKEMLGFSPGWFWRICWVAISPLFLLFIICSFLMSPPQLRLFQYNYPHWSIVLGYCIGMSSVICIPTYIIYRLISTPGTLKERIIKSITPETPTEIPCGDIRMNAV
# ASSAY TEXT: Inhibitory constant against reuptake of [3H]5-HT at serotonin transporter of rat […]
pKi: −log10 of the molar value.
REPORTED METRIC: pKi

>>> reading("COC(=O)C1C2CC[C@@H]3C[C@@H]1/C(=C/c1ccc(-c4ccc(F)c(F)c4)cc1)CN23 (stereo partly drawn)")
6.53
>>> reading("COC(=O)C1C2CC3CCC1N3C/C2=C\\C#Cc1ccc(F)c(F)c1 (stereo not drawn)")
7.16
>>> reading("COC(=O)C1C2CC3CCC1N3C/C2=C\\C#Cc1ccc(F)cc1 (stereo not drawn)")
7.77
